experimentDescription: Inhibition of viral IRES-mediated translation in human HeLa cells after 60 mins by luciferase reporter gene assay
Assay type: functional, cell-based
recordedConditions: 1 h
readoutType: IC50

# annotated cases, reported IC50 shown
| compound | IC50 |
| --- | --- |
| COc1cc(O)cc2cc3oc(C)cc(=O)c3c(O)c12 | 44 µM |
| COc1cc(C)c2c(OC)cc(=O)oc2c1-c1c(O)cc(C)c2c(OC)cc(=O)oc12 [DEMETHYLKOTANIN] | > 100 µM |
| COc1cc(O)cc2cc(O)c3c(=O)cc(C)oc3c12 | > 100 µM |

# evaluate next
Lookup: Which IC50 is reported for this compound? CC(C)C[C@H]1NC(=O)[C@H]2C[C@@]3([C@@]45C[C@@H]6C(=O)N[C@H](C(C)C)C(=O)N6[C@@H]4Nc4ccccc45)c4ccccc4N[C@H]3N2C1=O
Found: > 100 µM

Source listed as ChEMBL document CHEMBL1148983.
